Target: rAtACBP6 (Arabidopsis thaliana)
Construct: made in house; host or cells: Escherichia coli
Sequence (P57752 whole entry): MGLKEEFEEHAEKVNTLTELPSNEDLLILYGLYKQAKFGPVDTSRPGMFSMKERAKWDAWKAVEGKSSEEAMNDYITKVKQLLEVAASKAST
Assay: ITC of acyl-CoA esters binding to rAtACBP6
Details: ITC, 30°C, 10 mM sodium phosphate buffer pH 7.0; mean of three±S.D.; read-out: Kd
class 1 if Kd is below 40 nM. class 0 if not; exact matches included in class 0.

Would you please look over these solved cases?
CCCCCCCCCCCCCCCC(=O)SCCNC(=O)CCNC(=O)[C@H](O)C(C)(C)COP(=O)(O)OP(=O)(O)OC[C@H]1O[C@@H](n2cnc3c(N)ncnc32)[C@H](O)[C@@H]1OP(=O)(O)O = class 1
CCCCC/C=C\C/C=C\CCCCCCCC(=O)SCCNC(=O)CCNC(=O)[C@H](O)C(C)(C)COP(=O)(O)OP(=O)(O)OC[C@H]1O[C@@H](n2cnc3c(N)ncnc32)[C@H](O)[C@@H]1OP(=O)(O)O = class 1
CCCCCCCC/C=C\CCCCCCCC(=O)SCCNC(=O)CCNC(=O)[C@H](O)C(C)(C)COP(=O)(O)OP(=O)(O)OC[C@H]1O[C@@H](n2cnc3c(N)ncnc32)[C@H](O)[C@@H]1OP(=O)(O)O = class 0
CCCCCCCCCCCCCCCCCC(=O)SCCNC(=O)CCNC(=O)[C@H](O)C(C)(C)COP(=O)(O)OP(=O)(O)OC[C@H]1O[C@@H](n2cnc3c(N)ncnc32)[C@H](O)[C@@H]1OP(=O)(O)O = class 0

Okay, next one:
Does CC/C=C\C/C=C\C/C=C\CCCCCCCC(=O)SCCNC(=O)CCNC(=O)[C@H](O)C(C)(C)COP(=O)(O)OP(=O)(O)OC[C@H]1O[C@@H](n2cnc3c(N)ncnc32)[C@H](O)[C@@H]1OP(=O)(O)O have Kd strictly under 40 nM?
class 0

----------
Below, each entry is listed with its recorded ΔG.
Molecular target: rAtACBP5 (Arabidopsis thaliana, UniProt Q8RWD9)
Sequence (Q8RWD9 whole entry): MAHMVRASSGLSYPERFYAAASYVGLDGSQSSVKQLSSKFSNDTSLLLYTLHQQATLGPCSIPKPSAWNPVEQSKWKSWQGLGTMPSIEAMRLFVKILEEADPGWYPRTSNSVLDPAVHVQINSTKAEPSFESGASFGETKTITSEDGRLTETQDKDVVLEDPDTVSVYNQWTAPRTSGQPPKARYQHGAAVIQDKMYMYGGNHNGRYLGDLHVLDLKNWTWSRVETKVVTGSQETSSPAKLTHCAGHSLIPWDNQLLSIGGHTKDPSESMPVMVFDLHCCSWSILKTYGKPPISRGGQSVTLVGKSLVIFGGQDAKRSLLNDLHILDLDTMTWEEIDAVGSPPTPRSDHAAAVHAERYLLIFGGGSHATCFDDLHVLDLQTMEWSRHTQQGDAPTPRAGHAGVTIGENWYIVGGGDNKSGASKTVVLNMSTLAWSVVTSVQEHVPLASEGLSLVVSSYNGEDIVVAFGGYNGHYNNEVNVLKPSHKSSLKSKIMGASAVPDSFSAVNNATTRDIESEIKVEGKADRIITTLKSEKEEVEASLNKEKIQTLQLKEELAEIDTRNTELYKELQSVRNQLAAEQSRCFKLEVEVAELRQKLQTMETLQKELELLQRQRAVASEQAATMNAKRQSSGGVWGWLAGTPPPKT
Experiment: ITC of acyl-CoA esters binding to rAtACBP5
Settings: ITC, 30°C, 10 mM sodium phosphate buffer pH 7.0; mean of three±S.D.; in kcal/mol
// no unit string in output, number only

CC/C=C\C/C=C\C/C=C\CCCCCCCC(=O)SCCNC(=O)CCNC(=O)[C@H](O)C(C)(C)COP(=O)(O)OP(=O)(O)OC[C@H]1O[C@@H](n2cnc3c(N)ncnc32)[C@H](O)[C@@H]1OP(=O)(O)O = −5.6

Now take the following compound into account.
Item CCCCCCCCCCCCCCCCCC(=O)SCCNC(=O)CCNC(=O)[C@H](O)C(C)(C)COP(=O)(O)OP(=O)(O)OC[C@H]1O[C@@H](n2cnc3c(N)ncnc32)[C@H](O)[C@@H]1OP(=O)(O)O has what recorded ΔG?
−6.2

----------
Below, each entry is listed with its recorded n.
Biological target: rAtACBP5 (Arabidopsis thaliana, UniProt Q8RWD9)
Assay: ITC of acyl-CoA esters binding to rAtACBP5
Conditions: ITC, 30°C, 10 mM sodium phosphate buffer pH 7.0; mean of three experiments±S.D.; stoichiometry of ligand-to-protein binding
// no unit string in output, number only

Solved entries (count: 4):
CC/C=C\C/C=C\C/C=C\CCCCCCCC(=O)SCCNC(=O)CCNC(=O)[C@H](O)C(C)(C)COP(=O)(O)OP(=O)(O)OC[C@H]1O[C@@H](n2cnc3c(N)ncnc32)[C@H](O)[C@@H]1OP(=O)(O)O = 1.2
CCCCCCCCCCCCCCCC(=O)SCCNC(=O)CCNC(=O)[C@H](O)C(C)(C)COP(=O)(O)OP(=O)(O)OC[C@H]1O[C@@H](n2cnc3c(N)ncnc32)[C@H](O)[C@@H]1OP(=O)(O)O = 0.9
CCCCC/C=C\C/C=C\CCCCCCCC(=O)SCCNC(=O)CCNC(=O)[C@H](O)C(C)(C)COP(=O)(O)OP(=O)(O)OC[C@H]1O[C@@H](n2cnc3c(N)ncnc32)[C@H](O)[C@@H]1OP(=O)(O)O = 1
CCCCCCCCCCCCCCCCCC(=O)SCCNC(=O)CCNC(=O)[C@H](O)C(C)(C)COP(=O)(O)OP(=O)(O)OC[C@H]1O[C@@H](n2cnc3c(N)ncnc32)[C@H](O)[C@@H]1OP(=O)(O)O = 1

// lookup n | system=rAtACBP5 (Arabidopsis thaliana, UniProt Q8RWD9) | key= CCCCCCCCCCCCCC(=O)SCCNC(=O)CCNC(=O)[C@H](O)C(C)(C)COP(=O)(O)OP(=O)(O)OC[C@H]1O[C@@H](n2cnc3c(N)ncnc32)[C@H](O)[C@@H]1OP(=O)(O)O
0.9

// lookup n | system=rAtACBP5 (Arabidopsis thaliana, UniProt Q8RWD9) | key= CCCCCCCC/C=C\CCCCCCCC(=O)SCCNC(=O)CCNC(=O)[C@H](O)C(C)(C)COP(=O)(O)OP(=O)(O)OC[C@H]1O[C@@H](n2cnc3c(N)ncnc32)[C@H](O)[C@@H]1OP(=O)(O)O
0.9
